Recorded values, source patent US6323185.

# System: HIV-1 integrase wild-type (IN1-288) (HIV-1, UniProt P12497 P12497:1148-1435)
# Test: inhibition; 3'-processing; strand transfer 0.125 uM
# Condition Label: G4
Attribute Measured: pIC50
// pIC50 here means minus log10 of the molar concentration (mol/L)

Documented pIC50 of GTGGTGGGTGGGTGGGT (ssDNA, all phosphodiester) [T30175] : 6.77
